B1: wild-type MTM1-B10 fusion protein [human] / wild-type MTMR12-GFP protein [human] (parent complex)
chain 1: MASASTSKYNSHSLENESIKRTSRDGVNRDLTEAVPRLPGETLITDKEVIYICPFNGPIKGRVYITNYRLYLRSLETDSSLILDVPLGVISRIEKMGGATSRGENSYGLDITCKDMRNLRFALKQEGHSRRDMFEILTRYAFPLAHSLPLFAFLNEEKFNVDGWTVYNPVEEYRRQGLPNHHWRITFINKCYELCDTYPALLVVPYRASDDDLRRVATFRSRNRIPVLSWIHPENKTVIVRCSQPLVGMSGKRNKDDEKYLDVIRETNKQISKLTIYDARPSVNAVANKATGGGYESDDAYHNAELFFLDIHNIHVMRESLKKVKDIVYPNVEESHWLSSLESTHWLEHIKLVLTGAIQVADKVSSGKSSVLVHCSDGWDRTAQLTSLAMLMLDSFYRSIEGFEILVQKEWISFGHKFASRIGHGDKNHTDADRSPIFLQFIDCVWQMSKQFPTAFEFNEQFLIIILDHLYSCRFGTFLFNCESARERQKVTERTVSLWSLINSNKEKFKNPFYTKEINRVLYPVASMRHLELWVNYYIRWNPRIKQQQPNPVEQRYMELLALRDEYIKRLEELQLANSAKLSDPPTSPSSPSQMMPHVQTHF
chain 2: MLGKGVVGGGGGTKAPKPSFVSYVRPEEIHTNEKEVTEKEVTLHLLPGEQLLCEASTVLKYVQEDSCQHGVYGRLVCTDFKIAFLGDDESALDNDETQFKNKVIGENDITLHCVDQIYGVFDEKKKTLFGQLKKYPEKLIIHCKDLRVFQFCLRYTKEEEVKRIVSGIIHHTQAPKLLKRLFLFSYATAAQNNTVTDPKNHTVMFDTLKDWCWELERTKGNMKYKAVSVNEGYKVCERLPAYFVVPTPLPEENVQRFQGHGIPIWCWSCHNGSALLKMSALPKEQDDGILQIQKSFLDGIYKTIHRPPYEIVKTEDLSSNFLSLQEIQTAYSKFKQLFLIDNSTEFWDTDIKWFSLLESSSWLDIIRRCLKKAIEITECMEAQNMNVLLLEENASDLCCLISSLVQLMMDPHCRTRIGFQSLIQKEWVMGGHCFLDRCNHLRQNDKEEVPVFLLFLDCVWQLVHQHPPAFEFTETYLTVLSDSLYIPIFSTFFFNSPHQKDTNMGREGQDTQSKPLNLLTVWDWSVQFEPKAQTLLKNPLYVEKPKLDKGQRKGMRFKHQRQLSLPLTQSKSSPKRGFFREETDHLIKNLLGKRISKLINSSDELQDNFREFYDSWHSKSTDYHGLLLPHIEGPEIKVWAQRYLRWIPEAQILGGGQVATLSKLLEMMEEVQSLQEKIDERHHSQQAPQAEAPCLLRNSARLSSLFPFALLQRHSSKPVLPTSGWKALGDEDDLAKREDEFVDLGDV

Variants of: B1
METHOD NOTES: co-immunoprecipitation (anti-B10 IP, western blot quantification); overexpressed in Cos1 cells; IP with anti-B10 tag antibody; parent: 1; read off a plot
Quick reference for response among some variants

Consider the reported response for these variants:
Using the record for chain 1 C375S , report its response.
~0.92 AU

What value of measured response is listed for chain 1 R184G ?
~0.05 AU

Requested read-out: response. Entry: chain 1 P205L
~0.07 AU

GET /values?readout=response&item= chain 1 V49F
~0.05 AU

Item chain 1 R421Q has what recorded response?
~0.92 AU

Further cases:
Value lookup for response; key = chain 1 R241C
~1 AU

I would be grateful if you could share the reported response for chain 1 R69C .
~0.05 AU
